Target: T1, human PRTG polypeptide (human, UniProt Q2VWP7 36-952, limits assumed)
T1 construct: also called protogenin
T1 sequence (looked up): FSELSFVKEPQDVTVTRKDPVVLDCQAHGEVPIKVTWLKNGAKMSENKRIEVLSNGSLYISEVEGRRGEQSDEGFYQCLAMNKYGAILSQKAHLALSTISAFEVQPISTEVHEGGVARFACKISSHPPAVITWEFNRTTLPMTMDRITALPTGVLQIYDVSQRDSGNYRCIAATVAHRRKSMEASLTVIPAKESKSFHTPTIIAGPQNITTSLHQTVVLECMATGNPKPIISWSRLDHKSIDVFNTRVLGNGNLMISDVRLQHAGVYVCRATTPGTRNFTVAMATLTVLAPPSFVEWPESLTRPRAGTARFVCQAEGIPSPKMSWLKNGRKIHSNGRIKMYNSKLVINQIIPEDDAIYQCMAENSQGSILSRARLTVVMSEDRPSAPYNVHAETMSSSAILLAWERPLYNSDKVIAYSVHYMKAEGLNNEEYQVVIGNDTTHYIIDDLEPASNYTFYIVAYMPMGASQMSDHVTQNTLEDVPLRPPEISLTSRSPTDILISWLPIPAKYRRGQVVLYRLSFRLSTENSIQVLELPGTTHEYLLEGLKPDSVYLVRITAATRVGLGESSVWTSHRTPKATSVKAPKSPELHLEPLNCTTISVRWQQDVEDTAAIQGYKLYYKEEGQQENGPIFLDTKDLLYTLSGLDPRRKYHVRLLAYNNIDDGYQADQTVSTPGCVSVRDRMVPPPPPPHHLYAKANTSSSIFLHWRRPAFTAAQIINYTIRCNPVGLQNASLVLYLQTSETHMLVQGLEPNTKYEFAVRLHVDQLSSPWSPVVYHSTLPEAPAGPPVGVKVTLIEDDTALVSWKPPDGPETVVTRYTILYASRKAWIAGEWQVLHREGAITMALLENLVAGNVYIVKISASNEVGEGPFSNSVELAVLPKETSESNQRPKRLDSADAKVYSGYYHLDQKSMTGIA
Test: ELISA and SPR (Blitz) as stated; which method gave the EC50 is not said
pEC50: −log10 of the molar value.
Reported values of pEC50 for individual entries
measured.parameter: pEC50

# binder, measured.parameter, reported
measured = [
    ("VH domain Clone #8 (other, also called #8 (VH domain)) VH: EVQLVESGGGLVQPGGSLRLSCKGSGFTFSNYWMHWVRQAPGKGLEWVSAISGSGGSTYYADSVKGRFTISRDNSKNTLYLQMNSLRAEDTATYYCATLCRGDSCYSPFDPWGQGTLVTVSSS", "pEC50", 9.09),
    ("VH domain Clone #1 (other, also called #1 (VH domain)) VH: EVQLVESGGGLVQPGGSLRLSCKASGFTVSSNYMHWVRQAPGKGLEWIGGINHSGRTNYKSSLKSRVTISRDNSKNTLYLQMNSLRAEDTAVYYCARLPPSRDGYNYADYWGQGTLVTVSS", "pEC50", 8.55),
    ("VH domain Clone #3 (other, also called #3 (VH domain)) VH: EVQLVESGGGLVQPGGSLRLSCAASYFDFDSYEMSWVRQAPGKALEWLGRIYTSGTTNYNPSLKSRVTISRDNSKNTLYLQMNSLRAEDTATYYCAMTGPYYDSSGYYPARHAEYFQHWGQGTLVTVSS", "pEC50", 9.12),
    ("VH domain Clone #2 (other, also called #2 (VH domain)) VH: EVQLVESGGGLVQPGGSLRLSCKGSGFTFSNFAMNWVRQAPGKGLEWVSAISGSGGSTYYADSVKGRFTISRDNSKNTLYLQMNSLRAEDTALYYCARGPDYYGSGSHGWFDPWGQGTLVTVSS", "pEC50", 7.52),
    ("VH domain Clone #7 (other, also called #7 (VH domain)) VH: EVQLVESGGGLVQPGGSLRLSCAASGFTFSNAWMSWVRQAPGKGLEWIGRIYSSGSTNYNPSLKSRVTISRDNSKNTLYLQMNSLRAEDTALYYCASTYRSSSGEYFQHWGQGTLVTVSSS", "pEC50", 9.54),
    ("VH domain Clone #6 (other, also called #6 (VH domain)) VH: EVQLVESGGGLVQPGGSLRLSCAASGFTFSNYGMSWVRQAPGQRLEWIGWIDTKTGNPRYGQGFTGRFTISRDNSKNTLYLQMNSLRAEDTATYYCVSTVPNGVEYFQHWGQGTLVTVSS", "pEC50", 8.20),
    ("VH domain Clone #5 (other, also called #5 (VH domain)) VH: EVQLVESGGGLVQPGGSLRLSCKGSGFNFGDYAMHWVRQAPGKALEWIGYIYNTGSTKYNPSLKSLVTISRDNSKNTLYLQMNSLRAEDTATYYCVSTVTNGVEYFQHWGQGTLVTVSS", "pEC50", 8.87),
    ("VH domain Clone #4 (other, also called #4 (VH domain)) VH: EVQLVESGGGLVQPGGSLRLSCAASGSAFGSHWMHWVRQAPGKGLEWVSSISSGGSSIYYADSVKGRFTISRDNSKNTLYLQMNSLRAEDTAVYYCARVRRDDDSNYRPFDVWGQGTMVTVSS", "pEC50", 9.05),
]

These data points were gathered from patent US20240358762A1.
